target: cMAGL (Macaca fascicularis); assay: Native MS (RapidFire) 2-AG substrate assay, purified cynomolgus monkey MAGL; type: biochemical
Sequence (A0A2K5V664 11-297): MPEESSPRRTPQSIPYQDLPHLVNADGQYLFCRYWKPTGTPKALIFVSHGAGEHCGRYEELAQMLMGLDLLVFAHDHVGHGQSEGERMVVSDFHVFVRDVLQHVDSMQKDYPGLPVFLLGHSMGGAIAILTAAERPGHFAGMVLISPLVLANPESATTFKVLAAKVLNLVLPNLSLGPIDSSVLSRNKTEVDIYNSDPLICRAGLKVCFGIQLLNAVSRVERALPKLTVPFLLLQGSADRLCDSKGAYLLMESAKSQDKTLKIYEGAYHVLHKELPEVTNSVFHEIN
pIC50: −log10 of the molar value.
MEASURED PROPERTY: pIC50

{"COMPOUND": "O=C(N1CC2(CC(CC3=C4C=CC=[N+]4[B-](F)(F)n4cccc43)C2)C1)N1CC2(CC(n3cnc(C4CC4)n3)C2)C1 [Compound 5]", "MEASURED PROPERTY": "pIC50", "TEST RESULT": 9.30}
{"COMPOUND": "O=C1CO[C@H]2CCN(C(=O)N3CC4(CC(CC5=C6C=CC(c7ccc[nH]7)=[N+]6[B-](F)(F)n6cccc65)C4)C3)C[C@H]2N1 [Compound 4a]", "MEASURED PROPERTY": "pIC50", "TEST RESULT": 9.70}
